- Test system: UACC-257
- METHOD NOTES: NCI tumour cell line growth inhibition, 48 h
Calls of active or inactive are those of the source. Rule as the data show it: active = GI50 up to about 1.1 µM and inactive = higher.
MEASURE: GI50

Recorded results for 4 compounds are shown here.
# COMPOUND, TESTED TARGET, RESULT
measured = [
    ("c1ccc(COc2ccc3[nH]c4c5c6ccccc6nc-5c[nH]c4c3c2)cc1", "UACC-257", "18 µM (inactive)"),
    ("C=CC(Br)(CBr)CCC(Br)C(C)(C)Br (stereo not given)", "UACC-257", "13.9 µM (inactive)"),
    ("Cc1ccc2c(c1)C(O)(c1ccccc1)CCS2 (stereo not given)", "UACC-257", "42 µM (inactive)"),
    ("O=C(O)CCSC(=O)Nc1ccc([N+](=O)[O-])cc1", "UACC-257", "> 100 µM (inactive)"),
]

Requested field: GI50. Item: CCN(/N=C1\CC2C=CCN(C2)C(=O)Cc2c1[nH]c1ccccc21)S(=O)(=O)c1ccc(C)cc1 (stereo not given) 94.2 µM (inactive)

* * *

- System: CAKI-1
- METHOD NOTES: NCI tumour cell line growth inhibition, 48 h
Active and inactive are the calls of the source. No stated cut-off is given here; in the data, active = GI50 up to about 1.1 µM and inactive = higher.
Respond using exactly one of the listed classes: active, inactive

Look over these answered cases.
# COMPOUND, ASSIGNED CLASS
records = [
    ("CC(O)c1cc2c(s1)C(=O)c1scc(C(C)O)c1C2=O (centres undefined)", "active"),
    ("COc1ccc(C2ON(c3ccccn3)CC=C2C)cc1 (centres undefined)", "inactive"),
    ("O=C1/C(=C\\c2ccc([N+](=O)[O-])cc2)N(S(=O)(=O)c2ccccc2)c2ncccc21", "inactive"),
    ("Cc1cccc(C(C)C)c1NC(=O)CCl", "inactive"),
    ("O=C(CSCC(=O)N/N=C/c1cccc(OCc2ccccc2)c1)N/N=C/c1cccc(OCc2ccccc2)c1", "inactive"),
]

# evaluate next
# fetch the recorded call for OC(CCN1CCN(CCOC(c2ccc(F)cc2)c2ccc(F)cc2)CC1)c1ccccc1 (centres undefined) here inactive

* * *

- Test system: SN12C
- METHOD NOTES: NCI tumour cell line growth inhibition, 48 h
The source made the active and inactive calls. No stated cut-off is given here; in the data, active = GI50 up to about 1.1 µM and inactive = higher.
MEASURE: GI50

These solved cases illustrate the format of a correct answer.
# MOLECULE, GI50
rows = [
    ("CCCc1cn2c(/C=N/NC(=N)N)c(-c3ccc(Cl)c([N+](=O)[O-])c3)nc2s1", "1.84 µM (inactive)"),
    ("COc1cc([N+](=O)[O-])ccc1NC(=O)c1cccc([N+](=O)[O-])c1O", "14.7 µM (inactive)"),
    ("Cc1cc2c(C)nn(Cc3ccc(Cl)cc3)c2c(C#N)c1C", "> 100 µM (inactive)"),
    ("CCC[C@H](C)C[C@H](C)C[C@H](C)/C=C(\\C)[C@@H](O)[C@@H](C)C(=O)CC", "18.8 µM (inactive)"),
    ("COc1cc(-c2cc(=O)c3ccccc3o2)ccc1N", "65.8 µM (inactive)"),
]

Notebook: pull reported GI50 for SN12C, entry "C[C@@H]1CC[C@]2(C(=O)O)CC[C@]3(C)C(=CC[C@@H]4[C@@]5(C)CC[C@H](O)C(C)(C)[C@@H]5CC[C@]43C)[C@@H]2[C@]1(C)O" 13.6 µM (inactive)

Report GI50 for "NCCOc1cccc(C2(N3CCCCC3)CCCCC2)c1" tested on SN12C. > 100 µM (inactive)

Tell me reported GI50 for "COc1ccc(/C=C\c2cc(OC)c(OC)c(OC)c2)cc1OC" , tested with SN12C. 0.216 µM (active)

Provide value of GI50 for this record tested with SN12C: "C=CCn1c(-c2ccc(-c3cs/c(=N\N=O)n3CC=C)cc2)cs/c1=N\N=O" 86.9 µM (inactive)

Give SN12C GI50 for "CC(=O)n1c(=O)c2cc3c(=O)n(-c4cccc(C#N)c4)c(=O)c3cc2c1=O" > 100 µM (inactive)

Could you share what GI50 was measured for "Cc1n2nc(N)sc2n[n+]1CC(=O)c1ccccc1" , tested on SN12C? > 100 µM (inactive)

Give SN12C GI50 for COc1cc2c(cc1Oc1ccc(OC)c3c1CC1c4c(cc(OC)c(OC)c4-3)CCN1C)CC1c3c(cc(OC)c(OC)c3-2)CCN1C (stereo not given) 6.59 µM (inactive)

Lab note: need GI50 with SN12C for entry COc1ccc(C(C)NNC(=O)c2ccncc2)cc1OC (stereo not given) , please look it up. > 100 µM (inactive)

Find GI50 (SN12C) for the entry "CS(=O)(=O)C1(Br)S(=O)(=O)OCCOS1(=O)=O" > 100 µM (inactive)

Any idea what GI50 came out for "N=C1C=C(N)C(=O)c2[nH]c(=O)ccc21" on SN12C? 1.76 µM (inactive)

Reported GI50 for SN12C, given "Cn1nc2ccc3nccc(NCCNCCO)c3c2n1" ? 32.8 µM (inactive)

* * *

- System: OVCAR-5
- METHOD NOTES: NCI tumour cell line growth inhibition, 48 h
Calls of active or inactive are those of the source. Rule as the data show it: active = GI50 up to about 1.1 µM and inactive = higher.
Reply using exactly one outcome from active, inactive

# MOLECULE, ASSIGNED CLASS
data = [
    ("COCCOCOc1ccc(OCc2ccccc2)cc1", "inactive"),
    ("CCN(CC)C(=O)N1CCN(C=S)CC1", "inactive"),
    ("COc1c(C)c(C/C=C(\\C)CCCC(C)CCCC(C)CCCC(C)C)c(OC)c2ccccc12 (stereo unspecified)", "inactive"),
    ("CSc1nc2nccnc2c(=O)[nH]1", "inactive"),
    ("Cc1c(N2CCCC2)cc2c(c1NC(=O)c1ccccc1Cl)C(C)(C)CC2(C)C", "inactive"),
]

How was "COc1ccc2[nH]c(Cl)c(/C=C3/C(=O)N(c4ccccc4)c4ccccc43)c2c1" classified in this test? inactive

Please state the recorded outcome for this molecule: "NNC(=S)N1CCN(C(=S)NN)CC1" inactive

* * *

- System: HL-60
- METHOD NOTES: NCI tumour cell line growth inhibition, 48 h
Calls of active or inactive are those of the source. Cut-off read from the data, not from the text of the source: active = GI50 up to about 1.1 µM and inactive = higher.
Give your call using only these classes: active, inactive

Record excerpt, results attached:
# COMPOUND, ASSIGNED CLASS
data = [
    ("CC(C)(C)c1cc2c(c(C(C)(C)C)c1O)CC(=O)O2", "inactive"),
    ("N#CC(C#N)=C1NC(=O)CC(=O)N1", "inactive"),
    ("Cc1cc(Br)ccc1/N=N/C1C(=O)ON=C1c1ccccc1 (configuration not stated)", "inactive"),
    ("CC(=O)O[C@@]12CO[C@@H]1C[C@H](O)[C@@]1(C)C(=O)[C@H](O)C3=C(C)[C@@H](OC(=O)[C@H](O)[C@@H](NC(=O)OC(C)(C)C)c4ccccc4)C[C@@](O)([C@@H](OC(=O)c4ccccc4)[C@H]21)C3(C)C [DOCETAXEL]", "active"),
    ("C[C@@H]1CC[C@]2(C(=O)O)CC[C@]3(C)C(=CC[C@@H]4[C@@]5(C)CC[C@H](O)C(C)(C)[C@@H]5CC[C@]43C)[C@@H]2[C@]1(C)O [POMOLIC ACID]", "inactive"),
]

Here is another compound to look at.
Which outcome did this test record for the compound "Cc1cc(O)nc(CNC(=O)c2cccc(C(=O)NCc3cc(O)nc(C)n3)c2)n1" ? inactive

* * *

- Test system: 786-0
- METHOD NOTES: NCI tumour cell line growth inhibition, 48 h
Calls of active or inactive are those of the source. Cut-off read from the data, not from the text of the source: active = GI50 up to about 1.1 µM and inactive = higher.
Collected GI50 values appear next to each entry.

# COMPOUND, GI50
records = [
    ("Cc1nc(N)nc(S)c1CCC(=O)O", "> 100 µM (inactive)"),
]

Consider the compound O=[N+]([O-])C1C2C=CC(C2)[C@H]1c1ccco1 (stereo partly drawn) and give its measured GI50. > 100 µM (inactive)

Given "CCC(=O)O[C@H]1CC[C@H]2[C@@H]3CCC4=CC(=O)C=C[C@]4(O)[C@H]3CC[C@]12C" , state its recorded GI50. 33.7 µM (inactive)

# input compound: O=C(NCC(O)COc1ccccc1)c1ccccc1O (stereo not drawn) ; wanted: its GI50 > 100 µM (inactive)

GI50 lookup needed for "COc1cc(OC)cc(C(=O)NC2=C(Cl)C(=O)c3ccccc3C2=O)c1" , thanks. 2.96 µM (inactive)

Could you share which GI50 value was measured for "COC(=O)c1cc(=O)nc2sc3cccc(C)c3n12" ? 21.3 µM (inactive)

Please report the recorded GI50 for "C=C1C(=O)O[C@@H]2[C@H]1CC[C@H](C)[C@]1(O)CCC(=O)[C@@]21C" . > 10 µM (inactive)

Tell me the measured GI50 of "NNc1nnc(CCCCCCCCc2nnc(NN)n2N)n1N" , please. 33.1 µM (inactive)
